Hello, the source for this data is patent US5728677, in case you need it.

- target.entity: CD2 (human, UniProt P06729)
- run.description: Jurkat cell binding assay, microscopy

binder | binding result
M101 deletion mutant of LFA-3 (ligand) FSQQIYGVVYGNVTFHVPSNVPLKEVLWKKQKDKVAELENSEFRAFSSFKNRVYLDTVSGSLTIYNLTSSWDCPMEQCKRNSTSIYFKMENDLPQKIQCTLSNPLFNTTSSIILTTCIPSSGHSRHRYALIPIPLAVITTCIVLYMNGILKCDRKPDRTNSN | binds
M102 deletion mutant of LFA-3 (ligand) FSQQIYGVVYGNVTFHVPSNVPLKEVLWKKQKDKVAELENSEFRAFSSFKNRVYLDTVSGSLTIYNLTSSDEDEYEMESPNITDTMKFFLYVLESLPSPTLTCALTNGSIEVQCMIPEHYNSHRGLIMYSSGHSRHRYALIPIPLAVITTCIVLYMNGILKCDRKPDRTNSN | binds
M100 deletion mutant of LFA-3 (ligand) FSQQIYGVVYDEDEYEMESPNITDTMKFFLYVLESLPSPTLTCALTNGSIEVQCMIPEHYNSHRGLIMYSWDCPMEQCKRNSTSIYFKMENDLPQKIQCTLSNPLFNTTSSIILTTCIPSSGHSRHRYALIPIPLAVITTCIVLYMNGILKCDRKPDRTNSN | no binding
M57 deletion mutant of LFA-3 (ligand) FSQQIYGVVYGNVTFHVPSNVPLKEVLWKKQKDKVAELENSEFRAFSSFKSLTIYNLTSSDEDEYEMESPNITDTMKFFLYVLESLPSPTLTCALTNGSIEVQCMIPEHYNSHRGLIMYSWDCPMEQCKRNSTSIYFKMENDLPQKIQCTLSNPLFNTTSSIILTTCIPSSGHSRHRYALIPIPLAVITTCIVLYMNGILKCDRKPDRTNSN | no binding
